Values were extracted from a melting point compilation (Tetko et al.; mined from patent text by program, amines drawn as free bases though some values may be those of a salt).

quantity.name: melting point

The reported melting point of the compound `Cc1c([N+](=O)[O-])ccc2[nH]ccc12` was 179 to 180 °C

The reported melting point of the compound `CNC(=NS(C)(=O)=O)NCCSCc1nccc(NC(N)=NCC(F)(F)F)n1` was 148 to 149 °C

The reported melting point of the compound `Clc1nc(NC2CC2)nc(C2CC2)n1` was 66 to 67 °C

The reported melting point of the compound `N#Cc1c(F)ccc(O)c1F` was 119 to 121 °C

The reported melting point of the compound `CC(C)(C)C(=O)Oc1ccc(CCNc2nc(N)n3nc(-c4ccco4)nc3n2)cc1` was 208 to 210 °C

The reported melting point of the compound `C=CC(=O)O[C@H]1CC[C@H](c2cccc(F)c2F)CC1` was 72.9 to 73.6 °C

The reported melting point of the compound CCOc1ccc(C2(c3ccc(OC)cc3)CC2(Cl)Cl)cc1 (stereo not drawn) was 114 to 117 °C

The reported melting point of the compound `COC(=O)c1ccccc1CN1CCN(c2nc(C)c(C(=O)NCc3ccccc3)s2)C1=O` was 130 to 133 °C

The reported melting point of the compound `CC1(C)N=C(c2ccccc2Cl)c2cc([N+](=O)[O-])ccc2-n2cnnc21` was 262 °C

The reported melting point of the compound `CCOC=C(C(=O)OCC)C(=O)c1ccc(I)cc1Cl` was 237 to 240 °C

The reported melting point of the compound COC(=O)c1ccc(C#CC(O)c2cc(C(C)(C)C)c(OCOCC[Si](C)(C)C)c(C(C)(C)C)c2)cc1 (stereo not drawn) was 91 to 92 °C

The reported melting point of the compound `COC(=O)c1cccc(C)c1[N+](=O)[O-]` was 72 °C

The reported melting point of the compound `Cc1sc(-c2ccc(C#N)cc2)nc1O` was 220 to 221 °C

The reported melting point of the compound `Cn1c(CCN2CCN(Cc3ccccc3)CC2)nc2ccc3ccccc3c21` was 144 to 146 °C

The reported melting point of the compound `Cc1cccc(C)c1NCCCCn1ccnc1` was 146 to 147 °C

The reported melting point of the compound `CCc1ccc(NC(=O)NCC2(c3ccccc3)CCCCC2)cc1` was 138 to 139 °C

The reported melting point of the compound Cc1cc(C)cc(CN(C)C2CCCn3c2c(-c2ccccc2)c2cc(C)c(C)cc2c3=O)c1 (stereo not drawn) was 144 to 145 °C

The reported melting point of the compound O=C(O)C1CSC(c2ccccc2OCCCO[N+](=O)[O-])N1 (stereo not drawn) was 131 to 134 °C
